experimentalTarget: T1, REF6 K1281A (Arabidopsis thaliana, UniProt Q9STM3 1223-1360, K1281A)
T1 sequence: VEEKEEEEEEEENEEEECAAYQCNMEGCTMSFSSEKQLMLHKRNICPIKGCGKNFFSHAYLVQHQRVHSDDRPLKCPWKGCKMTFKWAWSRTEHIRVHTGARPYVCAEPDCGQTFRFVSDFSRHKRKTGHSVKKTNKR
testMethodNotes: MST; MST: 20 mM HEPES pH 7.3, 150 mM NaCl, 0.2 mM TCEP, 0.5% CA-630, 25 C; EMSA: 30 uM protein, 10 uM dsDNA, 20 mM Tris pH 8.0, 100 mM NaCl, 2.5 mM MgCl2, 0.1% CA-630, 10% glycerol, 1 uM ZnSO4, 1 mM DTT, 4 C
conditionSet: protein: recombinant; tags: His6-MBP or GST, TEV-cleavable; label: FAM in MST; none in crystal and EMSA; 5' overhang 1 nt on both strands, 15 bp
measurementName: pKd
# log scale: pKd equals minus log10 of the concentration in mol/L

# return recorded pKd for entry NAC004 m5 (dsDNA) DNA 1: CTTTCTCTGTTTTGTC DNA 2: GGACAAAACAGAGAAA
5.89

Data origin, for the record: paper PMC7105484
